Test system: IFN-α production in human PBMCs
Assay: Induction of IFN-α in human PBMCs (ELISA)
Type: cell-based
Conditions: PBMC, 24 h, serial 4-fold dilutions, class symbols, read-out: PBMC assay IFNa EC50
Consider the following compounds; for each one, report its EC50.

Q: # lookup: EC50 of `CCCN(OCc1ccc(N)cc1)C(=O)C1=Cc2ccc(-c3cncc(C(F)(F)F)c3)cc2N=C(N)C1`
Ans: 50 to 500 nM

Q: Quick one: EC50 for `CCCN(OCc1ccc(N)cc1)C(=O)C1=Cc2ccc(-c3cccc(S(=O)(=O)N4CCC(O)CC4)c3)cc2N=C(N)C1` ?
Ans: 50 to 500 nM

Q: // query EC50 value for entry `CCCN(OCc1ccc(N)cc1)C(=O)C1=Cc2ccc(C(=O)Nc3cccc(CN)c3)cc2N=C(N)C1`
Ans: 50 to 500 nM

Q: Need EC50, item `NC1=Nc2cc(-c3cncc(CO)c3)ccc2C=C(C(=O)N(CCC(F)(F)F)OCc2ccc(N)cc2)C1`
Ans: 10 to 50 nM

Q: What value of EC50 has been reported for the following compound? `CCCN(OCc1ccc(N)cc1)C(=O)C1=Cc2ccc(-c3cncc(CO)c3)nc2N=C(N)C1`
Ans: ≤ 10 nM

Q: Given the compound `CCCN(OCc1ccc(N)cc1)C(=O)C1=Cc2ccc(C(=O)NC3COC3)cc2N=C(N)C1` , what is its reported EC50?
Ans: 10 to 50 nM

Q: Return reported EC50; argument: `CCCN(OCc1ccc(N)cc1)C(=O)C1=Cc2ccc(-c3cccc(S(=O)(=O)N4CC(O)C4)c3)cc2N=C(N)C1`
Ans: 50 to 500 nM
